- system_name: T1, Siglec-8-Fc tagged protein (human Siglec-8 extracellular domain fused to an immunoglobulin Fc region) (human)
- T1 construct: also called Siglec-8 Fc fusion protein
- protocol_summary: BLI (Octet Red 384), Siglec-8-Fc on anti-human capture sensors, Fab in solution
quantity: pKd
Note: pKd values are expressed as the negative base-10 logarithm of concentration in M.

Given the binder chimeric 2E2 Fab fragment (Fab, Fab made by papain digestion of the human IgG1 chimeric antibody) VH: QVQLKESGPGLVAPSQSLSITCTVSGFSLTIYGAHWVRQPPGKGLEWLGVIWAGGSTNYNSALMSRLSISKDNSKSQVFLKINSLQTDDTALYYCARDGSSPYYYSMEYWGQGTSVTVSS light: QIILTQSPAIMSASPGEKVSITCSATSSVSYMHWFQQKPGTSPKLWIYSTSNLASGVPVRFSGSGSGTSYSLTISRMEAEDAATYYCQQRSSYPFTFGSGTKLEIKRTVAAPSVFIFPPSDEQLKSGTASVVCLLNNFYPREAKVQWKVDNALQSGNSQESVTEQDSKDSTYSLSSTLTLSKADYEKHKVYACEVTHQGLSSPVTKSFNRGEC , write its reported pKd.
9.23
